Recorded values, source ChEMBL document CHEMBL1157539.

# Tested on: HepG2
# PROCEDURE_SUMMARY: GSK_TCMDC: Percent inhibition of human HepG2 cell line. Test compounds present at 10uM.
# Format: functional
REPORTED_METRIC: Inhibition (%)

COMPOUND	TEST_TARGET	OBSERVED
O=C(CC(=O)Nc1cc(Cl)cc(Cl)c1)Nc1cc(Cl)cc(Cl)c1	HepG2	0
O=C(Nc1ccc(-c2cccc(CN3CCC(O)CC3)c2)cc1)c1cccc(Cl)c1.O=C(O)C(F)(F)F	HepG2	50
COc1ccc(Oc2ccc(-c3c(C)[nH]c(C)c(Cl)c3=O)cc2)cc1	HepG2	0
COc1ccc(-c2cc3ncn(CC(=O)N4CCN(c5cccc(OC)c5)CC4)c(=O)c3s2)cc1	HepG2	49
N#Cc1ccc(/C=C/C(=O)NCCCCCN2CCCN(C(=O)Nc3ccc(Cl)c(C(F)(F)F)c3)CC2)cc1	HepG2	28
CC(C)C[C@H](NC(=O)c1cc2ccccc2s1)C(=O)N[C@H]1CCN(Cc2ccc(OCCCN(C)C)c(Cl)c2)C1.O=C(O)C(F)(F)F	HepG2	83
CC(C)N1CCC(N(Cc2ccc(-c3ccc(C(F)(F)F)cc3)cc2)C(=O)Cn2c(CCc3cccc(F)c3F)cc(=O)c3c2CCC3)CC1.O=C(O)C(O)C(O)C(=O)O	HepG2	30
CC1CN(Cc2ccccc2)CCN1c1ccc(NC(=O)c2ccc(F)cc2)cc1.O=C(O)C(F)(F)F (stereo not drawn)	HepG2	0

----------
Below, each of the compounds is paired with its reported Inhibition value.
# Tested on: Plasmodium falciparum
# PROCEDURE_SUMMARY: GSK_TCMDC: Inhibition of Plasmodium falciparum 3D7 in whole red blood cells, using parasite LDH activity as an index of growth. Test compounds present at 2uM
# Assay type: functional

COMPOUND	TEST_TARGET	Inhibition (%)
CN1CCCN(Cc2cccc(-c3ccc(NS(=O)(=O)c4cccc5cccnc45)cc3)c2)CC1.O=C(O)C(F)(F)F	Plasmodium falciparum	100
CC(C)NCc1cc(Nc2ccnc3cc(Cl)ccc23)ccc1O.Cl	Plasmodium falciparum	100
COc1ccc(F)cc1-c1ccc(C(=O)N2CCCN(c3ccc(C#N)cn3)CC2)cc1	Plasmodium falciparum	99
CC1(C)N=C(NC(=O)c2ccc([N+](=O)[O-])cc2)N=C(N)N1OCc1ccc2ccccc2c1	Plasmodium falciparum	95
COc1ccc(CNC2CCN(C)CC2)cc1-c1ccc(S(=O)(=O)NCc2ccccc2)cc1.O=C(O)C(F)(F)F	Plasmodium falciparum	100
COc1cc(NCC(O)CNc2cc(OC)c3ccccc3n2)nc2ccccc12	Plasmodium falciparum	100
Cc1nnc2c(NC(=O)/C=C/c3ccc(OC(F)(F)F)cc3)cc3cc(Cl)ccc3n12	Plasmodium falciparum	94
Cn1nccc1C(=O)NCCNCc1cccc(-c2cccc(-c3nc4cc(C(F)(F)F)ccc4[nH]3)c2)c1.O=C(O)C(F)(F)F	Plasmodium falciparum	100
CC(C)C[C@@H](/C=N/N1CCOC1=O)NC(=O)[C@H](CC(C)C)NC(=O)c1ccc(OCCN2CCOCC2)cc1	Plasmodium falciparum	92
COc1ccc(C(C(=O)NC2CCN(C[C@H](O)c3ccnc4ccc(OC)cc34)CC2)N2CCN(c3ccc(F)cc3)CC2)cc1 (stereo partly drawn)	Plasmodium falciparum	97
CCOC(=O)N1NC(=O)N(c2ccccc2)C1(c1ccccc1)c1ccccc1	Plasmodium falciparum	96
CO/C(=C\C=C\c1cc2cc(Cl)c(Cl)cc2[nH]1)C(=O)NCC(C)(C)CN(C)C	Plasmodium falciparum	81
NCc1cccc(-c2ccc3ccnc(N)c3c2)c1	Plasmodium falciparum	100
COc1ccccc1C1CCN(CCCCNC(=O)c2ccc(NC(=O)c3ccc(Cl)cc3)cc2)CC1	Plasmodium falciparum	95
COc1ccc(CNCc2cccc(-c3ccc(-c4nc5cccc(C)c5[nH]4)cc3)c2)cc1.O=C(O)C(F)(F)F	Plasmodium falciparum	100
CS(=O)(=O)Nc1ccc2[nH]cc(C3CCN(CCCCCNC(=O)/C=C/c4ccc(Cl)c(Cl)c4)CC3)c2c1	Plasmodium falciparum	100
Nc1cccc(CNCc2cccc(-c3cccc(-c4nc5cc(F)ccc5[nH]4)c3)c2)c1.O=C(O)C(F)(F)F	Plasmodium falciparum	100
Cc1cccc2nc(-c3ccc(-c4cccc(NC(=O)NCc5ccc(F)cc5)c4)cc3)[nH]c12	Plasmodium falciparum	100
